Data origin, for the record: PubChem BioAssay (EPA / NIEHS)

- Read-out: Vascular cell adhesion molecule 1 (VCAM1), VCAM1 (gene 7412)
- assayExplanation: BSK_hDFCGF_VCAM1: BioMAP Diversity Plus: hDFCGF Assay for Vascular cell adhesion molecule 1 (VCAM1) Biomarker Activity (AID 2283065);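 as to AC50: VCAM-1 protein level quantified by ELISA after 24 h chemical exposure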
- settings: primary human foreskin fibroblasts; actives raise or lower the signal
- Experimental: BSK_hDFCGF is a cell-based, multiplexed-readout assay that uses foreskin fibroblast, a human skin primary cell, with measurements taken at 24 hours after chemical dosing in a 96-well plate.BSK_hDFCGF_VCAM1 is an assay component measured in the BSK_hDFCGF assay. It measures VCAM-1 antibody related to regulation of gene expression using ELISA technology.Data from the assay component BSK_hDFCGF_VCAM1 was analyzed into 1 assay endpoint. […]
Activity calls are given as the source filed them. The calls were made as follows: active = hit-call score of the fitted dose curve at least 0.9, where 1 is the maximum; inactive = score below 0.9.
property: AC50

C[C@]12CC[C@@H]3c4ccc(O)cc4CC[C@H]3[C@@H]1CC[C@H]2O; 15.4 µM (active)
CCN(Cc1cccc(S(=O)(=O)O)c1)c1ccc(C(=C2C=CC(=[N+](CC)Cc3cccc(S(=O)(=O)O)c3)C=C2)c2ccccc2S(=O)(=O)[O-])cc1; inactive
CN1C(=O)CC[C@H]1c1cccnc1; inactive
CCCCCCCCOC(=O)c1cc(O)c(O)c(O)c1; 7.8 µM (active)
Cc1ncc(CO)c(CO)c1O; inactive
Cc1cc2c(cc1C(F)(F)F)N(C(=O)Nc1ccc(Oc3cccnc3C)nc1)CC2; inactive
OC12N=C(c3ccccc3)SC1Cc1cc(Cl)ccc12 (stereo unspecified); inactive
CCN(CC)C(=O)c1cc(S(=O)(=O)Cc2ccccc2)c(N2CCC(c3ccccc3)CC2)cc1N(CC)CCN(C)C; inactive

Query: Quick one: AC50 of c1ccc(C[n+]2cccc3ccccc32)cc1 ?
Reply: inactive

Query: // AC50 lookup, key: COc1ccc2cc(S(=O)(=O)N[C@H](CC(=O)N[C@H](Cc3ccc(CN4[C@H](C)CCC[C@@H]4C)cc3)C(=O)N(C)C(C)C)c3ccc4c(c3)OCO4)ccc2c1
Reply: 32.1 µM (active)

Query: // AC50 lookup, key: O=c1ccc2ccccc2o1
Reply: inactive

Query: Recorded AC50 of COc1cc(C(=O)NC2CCN(C)CC2)ccc1Nc1ncc2c(n1)N(C1CCCC1)CC(F)(F)C(=O)N2C , please.
Reply: 2.79 µM (active)

Query: Recorded AC50 for Cc1cccc2ccccc12 , please?
Reply: inactive

Query: What AC50 value was documented for this molecule, CCN(Cc1cccnc1)C(=O)c1cccc(Cl)c1[C@]1(C)C(=O)N(Cc2ccc(OC)cc2OC)c2ccc(Cl)cc21 ?
Reply: inactive

Query: What value of AC50 has been reported for the following molecule? O=C1CCC(C2CCCCC2)CC1
Reply: 31.6 µM (active)

Query: I would be grateful if you could share the reported AC50 for CN(C)C(=O)C1(N2CCCCC2)CCN(CC[C@@]2(c3ccc(Cl)c(Cl)c3)CN(C(=O)c3ccccc3)CCO2)CC1 .
Reply: 14.9 µM (active)

====

- Read-out: Monocyte Chemoattractant Protein-1 (MCP1), CCL2 (gene 6347)
- assayExplanation: BSK_CASM3C_MCP1: BioMAP Diversity Plus: CASM3C Assay for Monocyte Chemoattractant Protein-1 (MCP1) Biomarker Activity (AID 2283046);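 also: MCP-1 level quantified by ELISA 24 h after dosing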
- settings: primary human coronary artery smooth muscle cells; actives raise or lower the signal
Active and inactive are the calls of the source. Rule for the calls: active = hit-call score of the fitted dose curve at least 0.9, where 1 is the maximum; inactive = score below 0.9.
Your response should consist of one outcome taken from YES (active), NO (inactive)

O=C1O[C@H]([C@@H](O)CO)C(O)=C1O; NO
O=c1c(-c2ccc(O)cc2)coc2cc(O)cc(O)c12; YES

Query: Field: outcome | Entry: OCCO
Reply: NO

Query: Outcome? Cc1cn([C@H]2C[C@H](N=[N+]=[N-])[C@@H](CO)O2)c(=O)[nH]c1=O
Reply: NO

Query: Please share the test call associated with Cc1ccc2oc(CN(Cc3ccccc3)C(=O)Nc3c(F)cc(F)cc3F)c(-c3ccc(Cl)cc3)c2c1 .
Reply: NO

Query: Status in this test for CC(C)(C)c1cc(/C=C2\SC(N)=NC2=O)cc(C(C)(C)C)c1O ?
Reply: YES

Query: recorded result category for CCCCOC(=O)CC(CC(=O)OCCCC)(OC(C)=O)C(=O)OCCCC in this test
Reply: NO
